Sourced from patent US20180354962A1

Assay: Aqueous solubility from DMSO stock, LC-UV
Assay type: physicochemical
Settings: aqueous buffer, kinetic from dmso stock; buffer pH 2.2, 24 h shaking, 2.5% DMSO
Please provide measured log10 solubility at 24 h for the entries that follow.
Transform log10 | Measure solubility at 24 h | Unit µg/mL

Worked set:
{"Molecule": "Cc1cc(-c2nnn(C)n2)cc(C)c1-c1ccc(F)c2c1CC[C@H]2Nc1cnc2c(c1)OC[C@H]2CC(=O)O", "log10 solubility at 24 h": 0.85}
{"Molecule": "Cc1cc(C(=O)N(C)C)cc(C)c1-c1cccc2c1CC[C@H]2Nc1cnc2c(c1)OCC2CC(=O)O (stereo partly drawn)", "log10 solubility at 24 h": 1.90}
{"Molecule": "Cc1nc(-c2cc(C)c(-c3cccc4c3CC[C@H]4Nc3cnc4c(c3)OCC4CC(=O)O)c(C)c2)no1 (stereo partly drawn)", "log10 solubility at 24 h": 0.48}
{"Molecule": "Cc1cc(-c2ccc(=O)n(C)c2)cc(C)c1-c1cccc2c1CC[C@H]2Nc1cnc2c(c1)OCC2CC(=O)O (stereo partly drawn)", "log10 solubility at 24 h": 1.71}

Provide each entry's log10 solubility at 24 h from the list below.
1. N#CC1(c2ccccc2-c2cccc3c2CC[C@H]3Nc2cnc3c(c2)OCC3CC(=O)O)CC1 (stereo partly drawn)
2. Cc1cc(OC2CCOCC2)cc(C)c1-c1cccc2c1CC[C@H]2Nc1cnc2c(c1)OCC2CC(=O)O (stereo partly drawn)
3. COc1cc(F)c(-c2cccc3c2CC[C@H]3Nc2cnc3c(c2)OCC3CC(=O)O)c(F)c1 (stereo partly drawn)
4. Cc1cc(OCCC(C)(C)O)cc(C)c1-c1ccc(F)c2c1CC[C@H]2Nc1cnc2c(c1)OC[C@H]2CC(=O)O

# output
1. 1.83
2. 1.20
3. 1.48
4. 1.78

Please look at the items below and tell me log10 solubility at 24 h for each one, in order.
1. CC(C)c1ccccc1-c1cccc2c1CC[C@H]2Nc1cnc2c(c1)OCC2CC(=O)O (stereo partly drawn)
2. Cc1cc(OCC(C)(C)O)cc(C)c1-c1cccc2c1CC[C@H]2Nc1cnc2c(c1)OCC2CC(=O)O (stereo partly drawn)

# output
1: 0.60; 2: 1.82

Could I get log10 solubility at 24 h for every one of these entries?
1. Cc1cc(OCCC(C)(C)O)cc(C)c1-c1cccc2c1CC[C@H]2Nc1cnc2c(c1)OC[C@H]2CC(=O)O
2. Cc1cc(-c2ccn(C)c(=O)c2)cc(C)c1-c1cccc2c1CC[C@H]2Nc1cnc2c(c1)OCC2CC(=O)O (stereo partly drawn)
3. Cc1cc(-c2nnn(C)n2)cc(C)c1-c1cccc2c1CC[C@H]2Nc1cnc2c(c1)OC[C@H]2CC(=O)O

# output
1: 1.76; 2: 1.46; 3: 0.78

* * *

Target: human GPR40 receptor (Homo sapiens, UniProt O14842)
Sequence (O14842 whole entry): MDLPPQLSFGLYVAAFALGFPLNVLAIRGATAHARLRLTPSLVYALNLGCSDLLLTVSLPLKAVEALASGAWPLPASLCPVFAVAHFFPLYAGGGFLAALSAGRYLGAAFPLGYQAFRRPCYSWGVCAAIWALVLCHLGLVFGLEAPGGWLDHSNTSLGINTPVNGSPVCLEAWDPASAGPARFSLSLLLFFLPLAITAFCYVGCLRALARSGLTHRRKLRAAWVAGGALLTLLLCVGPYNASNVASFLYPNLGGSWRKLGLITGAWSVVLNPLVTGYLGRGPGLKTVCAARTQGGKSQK
Test: IP1 accumulation measurements using the IPOne assay system
Conditions: 1321N1 cells stably expressing human GPR40; 1 h stimulation at 37° C.
Label key: 1.0 means EC50 under 80 nM; 0.0 means EC50 of 80 nM or more.

Use the examples below as a reference point.
{"Compound": "Cc1cc(-c2nnn(CC(C)(C)O)n2)cc(C)c1-c1cccc2c1CC[C@H]2Nc1cnc2c(c1)OCC2CC(=O)O (stereo partly shown) [Example 122]", "Label value": 1.0}
{"Compound": "Cc1cc(-c2ccc(=O)n(C)c2)cc(C)c1-c1cccc2c1CC[C@H]2Nc1cnc2c(c1)OCC2CC(=O)O (stereo partly shown) [Example 121]", "Label value": 1.0}
{"Compound": "Cc1cc(C(=O)N(C)C)cc(C)c1-c1cccc2c1CC[C@H]2Nc1cnc2c(c1)OCC2CC(=O)O (stereo partly shown) [Example 126]", "Label value": 0.0}
{"Compound": "Cc1cc(-c2nnn(C)n2)cc(C)c1-c1ccc(F)c2c1CC[C@H]2Nc1cnc2c(c1)OC[C@H]2CC(=O)O [Example 5]", "Label value": 1.0}

# input Quick check: does Cc1cc(OC2CCOCC2)cc(C)c1-c1cccc2c1CC[C@H]2Nc1cnc2c(c1)OCC2CC(=O)O (stereo partly shown) [Example 119] have EC50 under 80 nM?
# output 0.0

# input Please determine if CCc1cccc(CC)c1-c1cccc2c1CC[C@H]2Nc1cnc2c(c1)OCC2CC(=O)O (stereo partly shown) [Example 124] is below 80 nM in terms of EC50.
# output 1.0

# input Would you kindly verify if EC50 of Cc1cc(-c2nnn(C)n2)cc(C)c1-c1cccc2c1CC[C@H]2Nc1cnc2c(c1)OC[C@H]2CC(=O)O [Example 3] is strictly less than 80 nM?
# output 1.0

* * *

pIC50: −log10 of the molar value.
Endpoint: pIC50. System: cytochrome P450 2C9-isoenzyme (Homo sapiens). Items follow.
Sequence (P11712 whole entry): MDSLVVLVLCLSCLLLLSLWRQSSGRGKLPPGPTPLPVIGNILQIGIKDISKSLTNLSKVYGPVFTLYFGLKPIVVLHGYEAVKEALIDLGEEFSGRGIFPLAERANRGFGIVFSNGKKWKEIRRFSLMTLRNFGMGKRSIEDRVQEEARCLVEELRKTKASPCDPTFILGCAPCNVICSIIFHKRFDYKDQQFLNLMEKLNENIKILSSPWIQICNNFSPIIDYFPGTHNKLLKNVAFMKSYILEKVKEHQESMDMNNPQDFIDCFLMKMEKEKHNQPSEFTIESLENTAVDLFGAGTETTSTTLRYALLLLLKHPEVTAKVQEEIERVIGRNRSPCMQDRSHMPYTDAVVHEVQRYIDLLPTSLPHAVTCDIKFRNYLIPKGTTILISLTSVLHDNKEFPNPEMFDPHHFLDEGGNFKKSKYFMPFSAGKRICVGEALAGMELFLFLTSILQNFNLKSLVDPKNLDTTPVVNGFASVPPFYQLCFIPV

Guide cases for pIC50, answers given:
{"Molecule": "N#Cc1cccc(C#N)c1-c1cccc2c1CC[C@H]2Nc1cnc2c(c1)OCC2CC(=O)O (stereo partly shown)", "pIC50": "< 4.30"}
{"Molecule": "Cc1cc(-c2ccn(C)c(=O)c2)cc(C)c1-c1cccc2c1CC[C@H]2Nc1cnc2c(c1)OCC2CC(=O)O (stereo partly shown)", "pIC50": "< 4.30"}

Fill in pIC50 for each of the 2 molecules listed.
1. Cc1cc(-c2ccc(=O)n(C)c2)cc(C)c1-c1cccc2c1CC[C@H]2Nc1cnc2c(c1)OCC2CC(=O)O (stereo partly shown)
2. Cc1cc(-c2nnn(C)n2)cc(C)c1-c1ccc(F)c2c1CC[C@H]2Nc1cnc2c(c1)OC[C@H]2CC(=O)O

# output
< 4.30
4.32

* * *

Biological target: human GPR40 receptor (Homo sapiens, UniProt O14842)
Assay: IP1 accumulation measurements using the IPOne assay system
Details: 1321N1 cells stably expressing human GPR40; 1 h stimulation at 37° C.
Provide the recorded EC50 for the entries that follow.
One number for each entry, in nM.

A selection of reference data follows.
{"Compound": "Cc1cc(OCCC(C)(C)O)cc(C)c1-c1cccc2c1CC[C@H]2Nc1cnc2c(c1)OC[C@H]2CC(=O)O [Example 4]", "EC50, nM": 64}
{"Compound": "Cc1cc(-c2ccn(C)c(=O)c2)cc(C)c1-c1cccc2c1CC[C@H]2Nc1cnc2c(c1)OCC2CC(=O)O (stereo partly shown) [Example 120]", "EC50, nM": 52}

Look up EC50 for the entries below, preserving their order.
1. Cc1cc(OCC(C)(C)O)cc(C)c1-c1cccc2c1CC[C@H]2Nc1cnc2c(c1)OCC2CC(=O)O (stereo partly shown) [Example 118]
2. Cc1ccc(Cl)c(-c2cccc3c2CC[C@H]3Nc2cnc3c(c2)OCC3CC(=O)O)c1Cl (stereo partly shown) [Example 128]
3. Cc1cc(OCCC(C)(C)O)cc(C)c1-c1ccc(F)c2c1CC[C@H]2Nc1cnc2c(c1)OCC2CC(=O)O (stereo partly shown) [Example 1]
4. Cc1nc(-c2cc(C)c(-c3cccc4c3CC[C@H]4Nc3cnc4c(c3)OCC4CC(=O)O)c(C)c2)no1 (stereo partly shown) [Example 132]

# output
158
126
57
36

* * *

Would you kindly list pIC50 for each of these molecules?
Sequence of the target: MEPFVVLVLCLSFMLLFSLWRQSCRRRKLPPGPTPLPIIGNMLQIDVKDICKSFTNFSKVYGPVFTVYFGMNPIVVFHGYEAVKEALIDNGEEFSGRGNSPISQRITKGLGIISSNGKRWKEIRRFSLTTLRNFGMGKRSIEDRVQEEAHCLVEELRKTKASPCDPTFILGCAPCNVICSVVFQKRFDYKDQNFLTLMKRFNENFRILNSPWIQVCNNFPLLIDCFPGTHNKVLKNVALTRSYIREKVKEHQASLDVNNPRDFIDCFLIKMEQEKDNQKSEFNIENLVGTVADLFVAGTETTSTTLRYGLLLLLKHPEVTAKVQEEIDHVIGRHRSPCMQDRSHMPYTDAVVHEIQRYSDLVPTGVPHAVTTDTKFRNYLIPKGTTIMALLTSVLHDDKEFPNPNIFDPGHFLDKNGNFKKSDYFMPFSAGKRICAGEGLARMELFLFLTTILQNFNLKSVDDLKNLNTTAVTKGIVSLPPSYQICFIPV
Numbers only, as −log10 of the molar value.

Here's what some known entries look like.
{"Molecule": "Cc1cc(-c2nnn(CC(C)(C)O)n2)cc(C)c1-c1cccc2c1CC[C@H]2Nc1cnc2c(c1)OCC2CC(=O)O (stereo partly shown) [Example 122]", "pIC50": 4.49}
{"Molecule": "Cc1cc(OCCC(C)(C)O)cc(C)c1-c1ccc(F)c2c1CC[C@H]2Nc1cnc2c(c1)OCC2CC(=O)O (stereo partly shown) [Example 1]", "pIC50": 4.77}
{"Molecule": "Cc1cc(OC2CCOCC2)cc(C)c1-c1cccc2c1CC[C@H]2Nc1cnc2c(c1)OCC2CC(=O)O (stereo partly shown) [Example 119]", "pIC50": 4.39}

# input Requested read-out: pIC50. Entry: Cc1cc(OCCC(C)(C)O)cc(C)c1-c1ccc(F)c2c1CC[C@H]2Oc1ccc2c(c1)OC[C@H]2CC(=O)O [4 (WO 2013/144097), reference compound]
# output 5.22
